Every entry's value here was drawn from paper PMC5540273.

Tested on: GCN2(Kin.Dom.2,S808G)
Construct: gene EIF2AK4
Details: concentration: 1 μM, replicates: in singlicate; n = 1;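 further: KINOMEscan kinase panel screen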

>  <compound>
Cc1nccc(-c2c(-c3ccc(F)cc3)ncn2CCCN2CCOCC2)n1.Cl [SB-282975]

>  <uom>
%

>  <%Inh>
0

$$$$
>  <compound>
Nc1nccc(-c2c(-c3ccc(F)cc3)ncn2C2CCN(Cc3ccccc3)CC2)n1 [SB-219980]

>  <uom>
%

>  <%Inh>
1

$$$$
>  <compound>
CSc1ccc(-c2nc3n(c2-c2ccncc2)CCC3)cc1 [SKF-105561]

>  <uom>
%

>  <%Inh>
2

$$$$
>  <compound>
CC[C@@H]1CO[C@H](C(=O)Nc2ccccc2)CN1c1cc(-c2ccc3c(N)n[nH]c3c2)nc(NC)n1 [GSK2376236]

>  <uom>
%

>  <%Inh>
0

$$$$
>  <compound>
CC(=O)c1c(C)c2cnc(Nc3ccc(N4CCNCC4)cn3)nc2n(C2CCCC2)c1=O

>  <uom>
%

>  <%Inh>
0

$$$$
>  <compound>
Cc1ccc(NC(=O)Nc2ccc(Cl)c(C(F)(F)F)c2)cc1-c1ccc(C(=O)Nc2ccncc2)cc1 [GSK1398470]

>  <uom>
%

>  <%Inh>
15

$$$$
>  <compound>
NS(=O)(=O)c1cccc(N/C=C2\C(=O)Nc3ccc(S(=O)(=O)Cc4c(Cl)cccc4Cl)cc32)c1 [GSK398099]

>  <uom>
%

>  <%Inh>
0

$$$$
>  <compound>
O=C1NC(=O)C(c2ccc(Cl)cc2)=C1Nc1cccc(Cl)c1 [SB-317651]

>  <uom>
%

>  <%Inh>
2

$$$$
>  <compound>
Cc1c(Cn2c3ccccc3n3c(=O)cc(N4CCOCC4)nc23)cccc1C(F)(F)F [GSK2306394]

>  <uom>
%

>  <%Inh>
5

$$$$
>  <compound>
CS(=O)(=O)Cc1ccc(Nc2nccc(-c3c(-c4cccc(NC(=O)C5CCCCC5)c4)nn4ncccc34)n2)cc1 [GSK350559]

>  <uom>
%

>  <%Inh>
0

$$$$
>  <compound>
c1ccc(-c2ccnc3[nH]ccc23)cc1 [SB-693578]

>  <uom>
%

>  <%Inh>
0

$$$$
>  <compound>
CCc1ccc(-c2ccc3c(c2)-c2n[nH]cc2S(=O)(=O)N3C)cc1

>  <uom>
%

>  <%Inh>
24

$$$$
>  <compound>
CS(=O)(=O)CCNCc1nc(-c2ccc3ncnc(Nc4ccc(OCc5ccccc5)c(Cl)c4)c3c2)cs1.Cl [GW582764]

>  <uom>
%

>  <%Inh>
0

$$$$
>  <compound>
COC(=O)C(NC(=O)NC1CCN(c2ccnc(Nc3ccc(F)cc3)n2)C1)c1ccccc1 (centres unmarked) [GSK1379712]

>  <uom>
%

>  <%Inh>
2

$$$$
>  <compound>
Nc1ncnc2occ(-c3ccc4c(c3)CCN4C(=O)Cc3cc(F)ccc3F)c12 [GSK2645446]

>  <uom>
%

>  <%Inh>
0

$$$$
>  <compound>
Cc1ccc(NC(=O)Nc2ccccc2)cc1-c1ccc(C(=O)Nc2ccncc2)cc1 [GSK1398471]

>  <uom>
%

>  <%Inh>
50

$$$$
>  <compound>
CCn1c(-c2ccccc2)nc2cnccc21 [SB-733416]

>  <uom>
%

>  <%Inh>
0

$$$$
>  <compound>
CNc1nc(-c2ccc3c(N)n[nH]c3c2)cc(N2C[C@@H](C(=O)NC3CCCCC3)OC[C@H]2C)n1 [GSK2375584]

>  <uom>
%

>  <%Inh>
0

$$$$
>  <compound>
Cn1cncc1-c1cc2c(Nc3ccc(OCc4ccccc4)cc3)ncnc2cn1 [GW281179]

>  <uom>
%

>  <%Inh>
1

$$$$
>  <compound>
O=C(Nc1n[nH]c2nc(-c3ccco3)c(Br)cc12)C1CCN(Cc2ccccc2)C1.O=C(O)[C@H](O)[C@@H](O)C(=O)O (centres unmarked) [SB-742034]

>  <uom>
%

>  <%Inh>
0

$$$$
>  <compound>
Cc1ccc(NC(=O)c2ccc(Cl)cc2)cc1-c1ccc(C(=O)Nc2ccncc2)cc1 [GSK1398467]

>  <uom>
%

>  <%Inh>
0

$$$$
>  <compound>
CC(=O)c1cccc(NC(=O)NC2CCN(c3ccnc(Nc4ccc(F)cc4)n3)C2)c1 (centres unmarked) [GSK1379710]

>  <uom>
%

>  <%Inh>
0

$$$$
>  <compound>
COc1ccc(Nc2nccc(-c3ccc(NC(=O)c4cc5cc(F)ccc5[nH]4)cc3)n2)cc1 [GSK1229496]

>  <uom>
%

>  <%Inh>
0

$$$$
>  <compound>
CCCCc1nn2ncccc2c1-c1ccnc(NC2CC2)n1 [GW684374]

>  <uom>
%

>  <%Inh>
0

$$$$
>  <compound>
COc1ccc(CSc2nnc(-c3ccc4ncsc4c3)o2)cc1C(F)(F)F

>  <uom>
%

>  <%Inh>
0

$$$$
>  <compound>
COc1ccc(CSc2nnc(-c3ccc4c(c3)CCO4)o2)cc1

>  <uom>
%

>  <%Inh>
33

$$$$
>  <compound>
CC(C)c1cc(-c2ccc3c(N)n[nH]c3c2)nc(N)n1 [GSK2250882]

>  <uom>
%

>  <%Inh>
0

$$$$
>  <compound>
O=C(Nc1n[nH]c2cc(-c3ccsc3)ccc12)C1CC1 [SB-732932]

>  <uom>
%

>  <%Inh>
0

$$$$
>  <compound>
CNc1cc(-c2ccc3c(N)n[nH]c3c2)nc(N)n1 [GSK2224810]

>  <uom>
%

>  <%Inh>
0

$$$$
>  <compound>
COc1cccc(C2=C(Nc3cc(Cl)c(O)c(Cl)c3)C(=O)NC2=O)c1 [SB-390767]

>  <uom>
%

>  <%Inh>
0

$$$$
>  <compound>
Cc1ccc(NC(=O)Nc2ccccc2F)cc1-c1ccc(C(=O)Nc2ccncc2)cc1 [GSK1398477]

>  <uom>
%

>  <%Inh>
28

$$$$
>  <compound>
CCn1c(-c2c(N)noc2C)nc2cnccc21 [SB-737856]

>  <uom>
%

>  <%Inh>
7

$$$$
>  <compound>
CN1c2ccc(-c3ccc(C(N)=O)cc3)cc2-c2[nH]ncc2S1(=O)=O

>  <uom>
%

>  <%Inh>
33

$$$$
>  <compound>
CNc1nc(-c2ccc3c(N)n[nH]c3c2)cc(N2C[C@@H](C(=O)Nc3ccccc3)CC[C@H]2C)n1 [GSK2298859]

>  <uom>
%

>  <%Inh>
0

$$$$
>  <compound>
COc1cc2ncnc(Nc3cccc(Br)c3)c2cc1OC.Cl [GI230329]

>  <uom>
%

>  <%Inh>
0

$$$$

---

System: JAK3(JH1domain-catalytic)
Details: concentration: 1 μM, replicates: in singlicate; n = 1

>  <compound>
Cc1nccc(-c2c(-c3ccc(F)cc3)ncn2CCCN2CCOCC2)n1.Cl

>  <%Inh>
9%

$$$$
>  <compound>
Cc1ccc(-c2nc(Nc3ccncc3)c3ccccc3n2)s1

>  <%Inh>
0%

$$$$
>  <compound>
Cc1ccc(NC(=O)c2ccc(Cl)cc2)cc1-c1ccc(C(=O)Nc2ccncc2)cc1

>  <%Inh>
0%

$$$$
>  <compound>
FC(F)(F)c1ccccc1-c1cc(-c2c[nH]nc2-c2ccccn2)ccn1

>  <%Inh>
0%

$$$$
>  <compound>
COc1cc2ncnc(Nc3cccc(Br)c3)c2cc1OC.Cl

>  <%Inh>
0%

$$$$
>  <compound>
O=C(Nc1n[nH]c2cc(-c3ccsc3)ccc12)C1CC1

>  <%Inh>
0%

$$$$
>  <compound>
Cc1c(Cn2c3ccccc3n3c(=O)cc(N4CCOCC4)nc23)cccc1C(F)(F)F

>  <%Inh>
0%

$$$$
>  <compound>
O=C(Nc1n[nH]c2nc(-c3ccco3)c(Br)cc12)C1CCN(Cc2ccccc2)C1.O=C(O)[C@H](O)[C@@H](O)C(=O)O (stereo not drawn)

>  <%Inh>
0%

$$$$
>  <compound>
CNc1nc(-c2ccc3c(N)n[nH]c3c2)cc(N2C[C@@H](C(=O)NC3CCCCC3)OC[C@H]2C)n1

>  <%Inh>
0%

$$$$
>  <compound>
CC(=O)c1c(C)c2cnc(Nc3ccn(C)n3)nc2n(C2CCCC2)c1=O

>  <%Inh>
9%

$$$$
>  <compound>
CS(=O)(=O)CCNCc1nc(-c2ccc3ncnc(Nc4ccc(OCc5ccccc5)c(Cl)c4)c3c2)cs1.Cl

>  <%Inh>
0%

$$$$
>  <compound>
Cc1ccccc1Cn1ccn2c(=O)cc(N3CCOCC3)nc12

>  <%Inh>
0%

$$$$
>  <compound>
COc1cccc(CNC(=O)NC2CCN(c3ccnc(Nc4ccc(F)cc4)n3)C2)c1 (stereo not drawn)

>  <%Inh>
0%

$$$$
>  <compound>
Cc1ccc(NC(=O)Nc2ccccc2)cc1-c1ccc(C(=O)Nc2ccncc2)cc1

>  <%Inh>
0%

$$$$
>  <compound>
CCn1c(-c2ccccc2)nc2cnccc21

>  <%Inh>
0%

$$$$
>  <compound>
CC(C)c1ccc(O)cc1Nc1ccnc2ccc(C(F)(F)F)cc12

>  <%Inh>
0%

$$$$
>  <compound>
CNC(=O)c1ccc(C)c(-n2c(C)cc(OCc3ccc(F)cc3F)c(Br)c2=O)c1

>  <%Inh>
0%

$$$$
>  <compound>
Cn1cnc2c(N)ncnc21

>  <%Inh>
6%

$$$$
